Molecular target: Nociceptin receptor (Mus musculus, UniProt P35377)
Sequence (P35377 whole entry): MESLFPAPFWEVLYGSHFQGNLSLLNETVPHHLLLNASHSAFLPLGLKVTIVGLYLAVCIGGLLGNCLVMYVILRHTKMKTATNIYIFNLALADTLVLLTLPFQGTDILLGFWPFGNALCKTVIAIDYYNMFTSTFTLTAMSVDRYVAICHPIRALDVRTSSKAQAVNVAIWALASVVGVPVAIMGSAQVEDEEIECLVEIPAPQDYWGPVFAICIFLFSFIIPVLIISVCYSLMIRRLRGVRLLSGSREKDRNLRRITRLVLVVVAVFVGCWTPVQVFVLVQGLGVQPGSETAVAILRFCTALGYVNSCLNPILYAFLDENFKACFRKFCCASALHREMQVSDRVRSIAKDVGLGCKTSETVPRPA
Test: Affinity to nociceptin receptors on mouse forebrain membranes by [3H]NC-NH2 displacement.
Let's look at some molecules and their measured Ki.
observation-type: Ki (nM)

# structure-string, observation-type, display-unit, quantitative-readout
rows = [
    ("C[C@H](NC(=O)CNC(=O)[C@@H](NC(=O)[C@H](Cc1ccccc1)NC(=O)CNC(=O)CNC(=O)CNCC1CCCCC1)[C@@H](C)O)C(=O)N[C@@H](CCCN=C(N)N)C(=O)N[C@@H](CCCCN)C(=O)N[C@@H](CO)C(=O)N[C@@H](C)C(=O)N[C@@H](CCCN=C(N)N)C(=O)N[C@@H](CCCCN)C(N)=O", "Ki", "nM", 2510),
    ("C[C@H](NC(=O)CNC(=O)[C@@H](NC(=O)[C@H](Cc1ccccc1)NC(=O)CNC(=O)CNC(=O)[C@@H](N)CC1CCCCC1)[C@@H](C)O)C(=O)N[C@@H](CCCN=C(N)N)C(=O)N[C@@H](CCCCN)C(=O)N[C@@H](CO)C(=O)N[C@@H](C)C(=O)N[C@@H](CCCN=C(N)N)C(=O)N[C@@H](CCCCN)C(N)=O", "Ki", "nM", 1),
]
